- Test system: WPMY1-ACTB-RAB5A
- PROTOCOL NOTES: lowest phenotypically active concentration; higher = less potent
- TEST CONTEXT: treatment time: 24 h
Structures can show the parent of a compound that is named as a salt.
For each of the compounds below, state its lowest phenotypically active concentration.
One number for each entry, in µM.

See these solved cases before continuing.
INSERT INTO results (compound, measurement_units, measured) VALUES
  ('O=C(O)[C@@H]1[C@H]2C[C@H]3c4[nH]c5ccccc5c4CCN3C[C@@H]2CC[C@@H]1O [Yohimbinic acid monohydrate]', 'µM', 9),
  ('CCCc1cc2c(N3CCN(C4=NCC(C)(C)S4)CC3)ncnc2s1 [MI 2 dihydrochloride]', 'µM', 3),
  ('Cc1ccc(Nc2nccc(N(C)c3ccc4c(C)n(C)nc4c3)n2)cc1S(N)(=O)=O [pazopanib]', 'µM', 9),
  ('COc1cc2nc(N3CCCN(C)CC3)nc(NC3CCN(Cc4ccccc4)CC3)c2cc1OC', 'µM', 1),
  ('CNC1CCC2(C)C(=CCC3C2CCC24CN(C)C(C)C2CCC34)C1 (stereo not drawn) [Isoconessimine]', 'µM', 1),
  ('CC(=O)NC1=NN(C(C)=O)C(C)(c2ccccc2)S1 (stereo not drawn)', 'µM', 3);

Give one value of lowest phenotypically active concentration per listed compound.
1. NC(=O)c1cccc(-c2cc(Nc3ccc(OC(F)(F)F)cc3)ncn2)c1
2. COc1cc(C(=O)N2CCC(N3CCN(C)CC3)CC2)ccc1Nc1ncc2c(n1)N(C)c1ccccc1C(=O)N2C
3. OCc1cc(C(O)CNCCCCCCOCCCCc2ccccc2)ccc1O (stereo not drawn) [salmeterol]
4. CS(=O)(=O)c1cccc(CNc2nc(Nc3ccc4c(c3)CCC(=O)N4)ncc2C(F)(F)F)c1
5. N=C1NC(=O)/C(=C\c2ccc(O)cc2)S1 [Mirin]

Result:
1. 3
2. 3
3. 9
4. 1
5. 9

GET /value?item= Nc1ncn([C@@H]2O[C@H](CO)[C@@H](O)[C@H]2O)c(=O)n1 [5-Azacytidine] &field=lowest phenotypically active concentration returns 3

* * *

- Tested on: A549-TP53BP1-CLTA
- PROTOCOL NOTES: phenotypically active (imaging signature differs from DMSO and reproducible) at any of 0.3-9 uM (binary (1 = active, 0 = inactive)); higher = active
- TEST CONTEXT: treatment time: 24 h
Where a name gives a salt, the structure may show the parent alone.
Your response should consist of one outcome taken from active, inactive

Below are worked cases with known answers.
INSERT INTO measurements (compound, category) VALUES
  ('Cn1c(=O)c2[nH]cnc2n(C)c1=O', 'inactive'),
  ('C[C@@H]1CN(Cc2ccc(F)cc2)[C@@H](C)CN1C(=O)c1cc2c(C(=O)C(=O)N(C)C)cn(C)c2cc1Cl [SCIO 469 hydrochloride]', 'inactive');

Problem: Hi team, can someone confirm the assay call for Cc1c(C)c2c(c(C)c1O)CC[C@@](C)(CCC[C@H](C)CCC[C@H](C)CCCC(C)C)O2 [Tocopherol (R,S)] ?
Result: inactive

Problem: Hi team, can someone confirm the assay call for O=C1C=C(O)C(=O)c2ccccc21 [2-Hydroxy-[1,4]naphthoquinone] ?
Result: inactive

Problem: Hi team, can someone confirm the assay call for CC(=O)OCC(=O)[C@@]12OC3(CCCC3)O[C@@H]1C[C@H]1[C@@H]3CCC4=CC(=O)C=C[C@]4(C)[C@@]3(F)[C@@H](O)C[C@@]12C [amcinonide] ?
Result: active

Problem: Hi team, can someone confirm the assay call for `CC(C)(C)c1ccc(S(=O)(=O)/C=C/C#N)cc1` ?
Result: inactive

Problem: Hi team, can someone confirm the assay call for `Cc1ccc2nc(NCCN)c3ncc(C)n3c2c1` ?
Result: active

Problem: Hi team, can someone confirm the assay call for `c1ccc(-c2cnn3cc(-c4ccc(OCCN5CCOCC5)cc4)cnc23)cc1` ?
Result: inactive

Problem: Hi team, can someone confirm the assay call for CC(C)n1c(/C=C/[C@@H](O)C[C@@H](O)CC(=O)O)c(-c2ccc(F)cc2)c2ccccc21.CC(C)n1c(/C=C/[C@H](O)C[C@H](O)CC(=O)O)c(-c2ccc(F)cc2)c2ccccc21 [Fluvastatin sodium] ?
Result: active

* * *

For each of the compounds below, state its phenotypically active.
- Test system: A549-GM130-SQSTM1
- PROTOCOL NOTES: phenotypically active (imaging signature differs from DMSO and reproducible) at any of 0.3-9 uM (binary (1 = active, 0 = inactive)); higher = active
- TEST CONTEXT: treatment time: 24 h
Where a name gives a salt, the structure may show the parent alone.
Numbers only.

Give one value of phenotypically active per listed compound.
1. C[C@@H]1CN(Cc2ccc(F)cc2)[C@@H](C)CN1C(=O)c1cc2c(C(=O)C(=O)N(C)C)cn(C)c2cc1Cl [SCIO 469 hydrochloride]
2. CCOc1ccc2nc(S(N)(=O)=O)sc2c1 [ethoxzolamide]
3. CC(C)(Oc1ccc(C2CC2(Cl)Cl)cc1)C(=O)O (stereo not drawn) [ciprofibrate]
4. C[C@]12CCC(=O)C=C1CC[C@@H]1[C@@H]2[C@@H](O)C[C@@]2(C)[C@H]1CC[C@]2(O)C(=O)CO [hydrocortisone]

Result:
0
0
0
1

* * *

- Test system: HepG2-CANX-COX4
- PROTOCOL NOTES: phenotypically active (imaging signature differs from DMSO and reproducible) at any of 0.3-9 uM (binary (1 = active, 0 = inactive)); higher = active
- TEST CONTEXT: treatment time: 24 h
Counter-ions that a name gives are not always drawn.
MEASURE NAME: phenotypically active
Numbers only.

See these solved cases before continuing.
INSERT INTO results (molecule, measure_name, measured) VALUES
  ('O=C(Nc1ccc(-c2ccnc(Nc3ccc(N4CCOCC4)cc3)n2)cc1)[C@@H]1CCCN1', 'phenotypically active', 1),
  ('CC(=O)O[C@H]1C(=O)[C@@]2(C)[C@H]([C@H](OC(=O)c3ccccc3)[C@]3(O)C[C@H](OC(=O)[C@H](O)[C@@H](NC(=O)c4ccccc4)c4ccccc4)C(C)=C1C3(C)C)[C@]1(OC(C)=O)CO[C@@H]1C[C@@H]2O', 'phenotypically active', 1);

Give one value of phenotypically active per listed molecule.
1. O=c1cc(-c2ccccc2)oc2c(O)c(O)ccc12 [7,8-Dihydroxyflavone]
2. NS(=O)(=O)C#Cc1ccccc1

Result:
1. 1
2. 0

Give one value of phenotypically active per listed molecule.
1. S=P(N1CC1)(N1CC1)N1CC1
2. CC(=O)CCCCn1c(=O)c2c(ncn2C)n(C)c1=O
3. C[C@]12CC[C@@H]3c4ccc(O)cc4CC[C@H]3[C@@H]1CC[C@@H]2OC(=O)CCC1CCCC1 [estradiol cypionate]
4. CN(C)c1ccc(/C=C2\C(=O)Nc3ccccc32)cc1
5. O=C(O)[C@H]1O[C@@H](Oc2cc3oc(-c4ccccc4)cc(=O)c3c(O)c2O)[C@H](O)[C@@H](O)[C@@H]1O
6. CO[C@H]1C=CO[C@@]2(C)Oc3c(C)c(O)c4c(O)c(c5c(nc6cc(C)ccn65)c4c3C2=O)NC(=O)C(C)=CC=C[C@H](C)[C@H](O)[C@@H](C)[C@@H](O)[C@@H](C)[C@H](OC(C)=O)[C@@H]1C
7. CC1=CC(=O)C2=C(C)CC[C@@H]3[C@H](OC(=O)[C@H]3C)[C@@H]12

Result:
0
0
0
0
0
0
0

Give one value of phenotypically active per listed molecule.
1. CC(COc1ccccc1)N(CCCl)Cc1ccccc1 (stereo unspecified)
2. N#Cc1c(C2CCNCC2)cc(-c2c(O)cccc2OCC2CC2)nc1N
3. O=C(CCCN1CCC(O)(c2ccc(Cl)cc2)CC1)c1ccc(F)cc1
4. CN1CCN(C(=O)CN[C@H]2C[C@@H]2c2ccc(OCc3ccccc3)cc2)CC1 [RN 1 dihydrochloride]
5. FC(F)(F)c1ccc(/C=C/c2nc(COc3ccc(CCCCn4ccnn4)cc3)co2)cc1

Result:
1. 0
2. 1
3. 0
4. 0
5. 1

* * *

- System: WPMY1-TP53BP1-CLTA
- PROTOCOL NOTES: phenotypically active (imaging signature differs from DMSO and reproducible) at any of 0.3-9 uM (binary (1 = active, 0 = inactive)); higher = active
- TEST CONTEXT: treatment time: 24 h
Your response should consist of one outcome taken from label 1 for active, label 0 for inactive

INSERT INTO results (molecule, category) VALUES
  ('CC[C@@H](N)CNc1ccnc(-c2cc(-c3cnn(C)c3)ccc2O)n1', 'label 1'),
  ('C[N+]1(C)CCC(=C(c2ccccc2)c2ccccc2)CC1 [diphemanil]', 'label 0'),
  ('CC(=O)CCCCn1c(=O)c2c(ncn2C)n(C)c1=O [Pentoxifylline]', 'label 0'),
  ('COc1cc(N2CCC(N)CC2)ccc1Nc1ncc(Cl)c(-c2c[nH]c3ccccc23)n1', 'label 1'),
  ('Fc1ccccc1Nc1nc2nonc2nc1Nc1ccccc1F', 'label 0');

Problem: Hi team, can someone confirm the assay call for CC1(C)CC(=O)C2=C(C1)NC(=S)NC2c1cccc(O)c1 (stereo not given) [Dimethylenastron] ?
Result: label 1
